- Tested on: Fe-DA
- Protocol notes: H2O2 assay, Fe-DA (% cf. Fe 0.4 μM/DA 50 μM)
- Assay type: biochemical
- Test settings: Fe 0.4 μM/DA 50 μM
The label depends only on Fe-DA % cf. Fe 0.4 μM/DA 50 μM: Met if it is at least 60%, Not met if it is smaller.

| Smiles representation | Target desc | Class |
| --- | --- | --- |
| CCN(CC)Cc1nc2c(O)c(Cl)cc(Cl)c2c(=O)n1C | Fe-DA | Met |
| CCCn1c(CNCC)nc2c(O)c(Cl)cc(Cl)c2c1=O | Fe-DA | Met |
| CN(Cc1nc2c(O)c(Cl)cc(Cl)c2c(=O)n1CC1CC1)C1CCCCC1 | Fe-DA | Met |
| CCCNCc1nc2c(O)c(Cl)cc(Cl)c2c(=O)n1C | Fe-DA | Met |
| CCCN(CCC)Cc1nc2c(O)c(Cl)cc(Cl)c2c(=O)n1C | Fe-DA | Not met |
| CCn1c(CN(C)Cc2ccc(F)cc2)nc2c(O)c(Cl)cc(Cl)c2c1=O | Fe-DA | Not met |
| CCCn1c(CN2CCCCC2)nc2c(O)c(Cl)cc(Cl)c2c1=O | Fe-DA | Not met |
| CCCNCc1nc2c(O)c(Cl)cc(Cl)c2c(=O)n1CCC | Fe-DA | Not met |
| Cn1c(CN2CCCCC2)nc2c(O)c(Cl)cc(Cl)c2c1=O | Fe-DA | Met |
| CCCN(CCC)Cc1nc2c(O)c(Cl)cc(Cl)c2c(=O)n1CC | Fe-DA | Met |
| CCCn1c(CN(C)C)nc2c(O)c(Cl)cc(Cl)c2c1=O | Fe-DA | Not met |
| CCN(CC)Cc1nc2c(O)c(Cl)cc(Cl)c2c(=O)n1CC | Fe-DA | Met |
